Just for reference, patent US8324390B2 is where these values come from.

Quick reference for pest or weed control at 100 g/ha among some compounds
# System: larvae of the mustard beetle (Phaedon cochleariae)
# procedureDetails: Phaedon test (PHAECO spray treatment)
# measurementSetup: Phaedon cochleariae, in Brassica rapa, foliar, read-out: effect in % (beetle larvae killed)

# pest or weed control at 100 g/ha lookup, item "Cc1cc(C#N)cc(C(=O)NC(C)(C)C)c1NC(=O)c1cc(Cn2nnc(C(F)(F)F)n2)nn1-c1ncccc1C(F)(F)F"
≥ 80%

// repeat for Cc1cc(F)cc(C(=O)NC(C)C2CC2)c1NC(=O)c1cc(Cn2nnc(C(F)(F)F)n2)nn1-c1ncccc1Cl (stereo not shown) and report
≥ 80%

Please answer likewise for "Cc1cc(Cl)cc(C(=O)NC(C)C)c1NC(=O)c1cc(Cn2nnnc2C(F)(F)C(F)(F)F)nn1-c1ncccc1Br"
≥ 80%

What do we get for "Cc1cc(C#N)cc(C(=O)NCC#N)c1NC(=O)c1cc(Cn2nnc(C(F)(F)F)n2)nn1-c1ncccc1Cl" ?
≥ 80%

Same lookup for "CNC(=O)c1cc(C#N)cc(C)c1NC(=O)c1cc(Cn2nnc(C(F)(F)F)n2)nn1-c1ccc(OC(F)(F)F)cc1Cl" , please.
≥ 80%

Next compound up: CCC(C)NC(=O)c1cc(Cl)cc(C)c1NC(=O)c1cc(Cn2nnc(C(F)(F)F)n2)nn1-c1ncccc1Cl (stereo not shown)
≥ 80%

Moving on to the next compound: "CNC(=O)c1cc(Cl)cc(C)c1NC(=O)c1cc(Cn2nnnc2C(F)(F)F)nn1-c1ncccc1Br"
≥ 80%

----------
# procedureDetails: log P determination by HPLC (EEC Directive 79/831 Annex V.A8)
# Type: physicochemical
# measurementSetup: log P
valueKind: chromatographic logP
// return a plain number; no unit text

>  <chemicalStructure>
CCNC(=O)c1cc(C#N)cc(C)c1NC(=O)c1cc(Cn2nnc(C(F)F)n2)nn1-c1ncccc1Cl

>  <valueReported>
2.36

$$$$

What value of measured chromatographic logP is listed for "CNC(=O)c1cc(C#N)cc(C)c1NC(=O)c1cc(Cn2nnnc2C(F)F)nn1-c1ncccc1Cl" ?
1.97

Likewise for "Cc1cc(Br)cc(C(=O)NC2CC2)c1NC(=O)c1cc(Cn2nnc(C(F)F)n2)nn1-c1ncccc1Cl" ?
2.85

Same for "Cc1cc(C#N)cc(C(=O)NC2CC2)c1NC(=O)c1cc(Cn2nnnc2C(F)(F)F)nn1-c1ncccc1Cl"
2.53

----------
# procedureDetails: log P determination by HPLC (EEC Directive 79/831 Annex V.A8)
# Type: physicochemical
# measurementSetup: log P
valueKind: chromatographic logP
The reply should be a number, written without any unit.

Below, 5 molecules whose answers are already recorded.
>  <chemicalStructure>
Cc1cc(Cl)cc(C(=O)NCC2CC2)c1NC(=O)c1cc(Cn2nnc(C(F)(F)F)n2)nn1-c1ncccc1Cl

>  <chromatographic logP>
3.53

$$$$
>  <chemicalStructure>
Cc1cc(Cl)cc(C(=O)NCC#N)c1NC(=O)c1cc(Cn2nnc(C(F)(F)F)n2)nn1-c1ncccc1Cl

>  <chromatographic logP>
2.93

$$$$
>  <chemicalStructure>
CNC(=O)c1cc(I)cc(C)c1NC(=O)c1cc(Cn2nnc(C(F)F)n2)nn1-c1ncccc1Cl

>  <chromatographic logP>
2.73

$$$$
>  <chemicalStructure>
CSC[C@H](C)NC(=O)c1cc(C#N)cc(C)c1NC(=O)c1cc(Cn2nnnc2C(F)(F)F)nn1-c1ncccc1Cl

>  <chromatographic logP>
2.92

$$$$
>  <chemicalStructure>
CNC(=O)c1cc(F)cc(C)c1NC(=O)c1cc(Cn2nnnc2C(F)(F)F)nn1-c1ncccc1Cl

>  <chromatographic logP>
2.32

$$$$

Name the recorded chromatographic logP for "Cc1cc(Br)cc(C(=O)NCC2CC2)c1NC(=O)c1cc(Cn2nnc(C(F)(F)F)n2)nn1-c1ncccc1Cl" .
3.88

# iterate: "CSC[C@H](C)NC(=O)c1cc(Cl)cc(Cl)c1NC(=O)c1cc(Cn2nnc(C(F)(F)F)n2)nn1-c1ncccc1Cl"
3.62
